- testDetails: soluble fraction after stress (log2 fold change); higher = more stays soluble; pooled small domains, quantitative proteomics;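 also: 20 min heating vs room temperature control held 20 min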
- conditionSummary: stress: 75 degC
propertyName: soluble fraction (log2)

sequence: HMHQPPDLDDFEAFVGRVKPALLQALVATYGPVDGREATVDALSWAWEHWDRLADVDHPVGYLYRV
testValue: -0.0172
//
sequence: HMSEEGTIPDVSGQDEASAQKALENAGFTNIKSEAVYSEEEQGTVIDTNPTAGTKVSKDTEITMQVSKGSE
testValue: 0.248

Report soluble fraction (log2), nothing else, for this sequence: HMINLGDLEVGHTYHTRMPILQNDLKYSHKSPIQIVAEHSIVYGVRVYIGFLNEHRVLVTADDV
0.0105

Return the recorded soluble fraction (log2) value; entry: HMIMDQTILRKQRELTDRLNRYRNEYYNHNKPSVSDEVYDRLFDELQSLEKETGVQMANSPTTTVG
-0.0853

###

Item-by-item account of soluble fraction (log2)
- testDetails: soluble fraction after stress (log2 fold change); higher = more stays soluble; pooled small domains, quantitative proteomics
- conditionSummary: stress: 75 degC

sequence: HMIGGEDEILKVVLEVLEEKPEAIEQYKNGRTNIVDFLVGQVMKKTRGQANPATTREFMIREIEK
soluble fraction (log2): -0.522

sequence: HMVDSTDLIPLLIKVSREKQGNKKLNWGEWLKIPENIYLKQINENIARKVFEDTNDLIDEAVNYINRKRRN
soluble fraction (log2): -0.963

sequence: HMEQSLNTYSIRTVKESLFLAETKNLNKIEKLVEGIEGRLTLSEALVLFSDKLNAMSVLSHVNANT
soluble fraction (log2): -0.154

sequence: HMFTKYSPDFKLSVILDMRKNNLGYGEVVRKYWNLDSYKESDRHRSQVRLWERIFLEEGVEGFM
soluble fraction (log2): -4.63

sequence: HMNSNISYSEFLSQVEKGTINSVEITGNSIKGIYADGGEFITFSPGDPGLIDKLQRSDIEILATPPA
soluble fraction (log2): 0.233

sequence: HMDNIKRGEMFYISRGGASYSGSEQHSDRPAVVVSNDKNNENSNVVEVVYMTTQPKTDLPTHVTVR
soluble fraction (log2): 0.0515

sequence: HMGSLAVVPSLTGKTLQEAQSKAADYGLALEIEGYVASTAVDYGRIVSQSPDAGFSVKSGSSVKVSVSAG
soluble fraction (log2): -0.0619

API: the following record is the query input.
Provide soluble fraction (log2) value for the following sequence: HMVLNVMIEEEVHREIIAAISKLPKERRRVVELSMAGFSQEEIAEKMAISVNTVKTIKLRAYRVLRERLKG
-3.78

###

- testDetails: soluble fraction after stress (log2 fold change); higher = more stays soluble; pooled small domains, quantitative proteomics
- conditionSummary: stress: 75 degC
propertyName: soluble fraction (log2)
Note: the reply should be a number with no unit written.

sequence: HMRLIALPSVTDISIRQAEATLMSIGIKVSSIQYAPSEYKDLVLEVKYRGQSIIQGAKIPEGSSVVLVAGN
testValue: -3.21

Could you now look at the following sequence, please?
Look up and state reported soluble fraction (log2) for HMGELDPKIIAQINTFLQGITKLIEHPGNKDAKKTALGALHKLTFDQNITANFGKQLGQLDQVIQSSEET
0.0337

###

- testDetails: soluble fraction after stress (log2 fold change); higher = more stays soluble; pooled small domains, quantitative proteomics
- conditionSummary: stress: 75 degC
Output rule met for soluble fraction (log2) not less than -0.3; output rule not met otherwise.

Please review the entries below; each comes with its answer.
sequence: HMEDVLVTQIIQLKHVDANDMKTLFTPLLSRGSSQLLAYPQSNVLIITDTRSNIKKITEILDIIDKS
assignedCategory: rule not met
//
sequence: HMLDSGNPILPYKLSLLANVDIRTVRNAISAGELVAFKSEFDGEVYVENGSARRWLHGRRGFKPTLK
assignedCategory: rule not met
//
sequence: HMGILPDDVKLNIKEAKKIGFPIMLKAIHGGGGRGMMIVQSEDEFADAMKITKTEAKNSFGNGDLYFEKFF
assignedCategory: rule met

Is it the case that HMSLETRRYQLPRTDAQTASGLLRSLSGLPGVREVNLSGEGVAYLKVDSKGFDEQNVIKLLAGE has soluble fraction (log2) reaching or exceeding -0.3?
rule met

Could you please find out whether HMENLTLVIGNKLKNIRNSRNLSLDDVAELTGVSKAMLGQIERGKSNPTVSTLWKISTGLRVSFSSFIDE has soluble fraction (log2) that meets -0.3 or exceeds it?
rule not met

###

- testDetails: soluble fraction after stress (log2 fold change); higher = more stays soluble; pooled small domains, quantitative proteomics
- conditionSummary: stress: 75 degC
This listing pairs sequences with measured soluble fraction (log2).

Examples from the recorded data:
sequence: HMNRQTGTVKWFNDAKGFGFITPESGPDLFVHFRSIQGAGFKSLQEGQRVTFVAVQGQKGMQADQVQA
soluble fraction (log2): -0.681

sequence: HMDSSNLSLIAGVGPTIEKKLRAAGITSWEQIAAWTEADVAKYDEELNLRGRITRDEWIEQAKELLAGKPP
soluble fraction (log2): 0.0267

sequence: HMLKPIHKDWSPNGDAKEILLKAGITEEFIQKELPEFIMYWSERNEESDIWNSKFIAHIRRRWGRFS
soluble fraction (log2): -1.64

Now let's try a different one.
Return value of soluble fraction (log2) for input HMDTNTIIGLRIKALRTEKKYTLKYLSENSGLSIGFLSQLERGMTSVAIDSLDKISKVLDVELSSFFN , no commentary.
-3.05

###

- testDetails: soluble fraction after stress (log2 fold change); higher = more stays soluble; pooled small domains, quantitative proteomics
- conditionSummary: stress: 75 degC
propertyName: soluble fraction (log2)
Note: the reply should be a number with no unit written.

Check the records and state soluble fraction (log2) for HMSETIVFGQQKAINTLSSEAGLSSAELNNYLKKRYQRPLFQLTVSEGADLIQGFQDGTLTKASITQYVSQ
-0.0878

Quick one: give measured soluble fraction (log2) for HMPLSVRQRMSDILSNLKTSDFTNFADLFDPKEGRTGITVTFIAILELLREFLIEVVQSDHYQPLHVRAAS
-0.213

Identify soluble fraction (log2) associated with the sequence HMDQFMLQSAWLRAVQHVMKHTDDVGTQFAEEARRMHYGEADERPIRGQATSDEARALHDEGIEVMALPI
-0.36

Provide measured soluble fraction (log2) value, entry: HMQAPHLALSPREFQVLQGLLAGDALDIIAERLHLSAKTVSNHQTLIRQKLGVGNAVELLRYAQLHRL
-2.49

###

- testDetails: soluble fraction after stress (log2 fold change); higher = more stays soluble; pooled small domains, quantitative proteomics
- conditionSummary: stress: 75 degC
Note that class boundaries on soluble fraction (log2) are low interval = under -2, middle interval = from -2 up to -0.09, high interval = -0.09 and over

# classify by soluble fraction (log2) band: HMSSPDMSLLYSELDVKDSGQIVTILEQRNIPYEVRNNGSQIYIPSNNVQRIRLSLAQEGLPSG
high interval

// bin(item) where item = HMKDRNISSSVLEILSKDPDHTYNYKQIAALLGVKDAFIRKRIVTLLAQLAKDGHLDEISRGKYQIK
middle interval

Hello team, could you let me know which band the following sequence falls into: HMDTNEPFAQLQLRFTDPIQYDYEVIRPVVLFSQSVTDRSDETEMPRTTVREKARQFVTEGMLGLVDK
high interval

###

- testDetails: soluble fraction after stress (log2 fold change); higher = more stays soluble; pooled small domains, quantitative proteomics
- conditionSummary: stress: 75 degC
List of soluble fraction (log2) values.
When you answer, write just the number.

Examples with answers:
sequence: HMSETQDQTTIEIEDMITVGTLAERLSIPVSTLIGELMKNGVMATVNEKIDFDTAQIIVGELKLPIELSKK
testValue: 0.0487
//
sequence: HMDYKSNLQEMVQTTKKSVTYELVKEEGPAHDRTFTMNVIVDGIVLGTGTAKSKKEAEQEAAHQALEKKA
testValue: -0.253
//
sequence: HMFIMQTVALGSEGPDVRALQSILNRIGYNAGTVDGIFGSRTRQAVIAFQRNNGLAADGVAGPATWG
testValue: 0.188

Shift focus to the following entry.
State its soluble fraction (log2) for this sequence: HMANTVVMPNLLGKTMTEAKIELKELGIDITLKGSESSSKYSAGQIMEQNIAEGTKVEVGSSVEVTIAGS
-0.579

###

- testDetails: soluble fraction after stress (log2 fold change); higher = more stays soluble; pooled small domains, quantitative proteomics
- conditionSummary: stress: 75 degC
Please enter 1 where soluble fraction (log2) is greater than or equal to -0.04, and 0 where it is lower.

Examples from the recorded data:
sequence: HMKIRIIKTASNAKAVQIVSYKNNKRIVLQHIGSAHTDETLNDLKILAEEWIKDYNHQLSIF
assignedCategory: 0

sequence: HMNQASLTYSEFIANVESKAITRVTISGDTISGILADGKPFQTIYPMADLELLPILRRSGVDINVKEVQ
assignedCategory: 0

sequence: HMKTVLDSLLRILDSKELDIVVLRHIVGLTLTEIAKEKDMKKGTVFWMYNRAVKKLRLESERMGL
assignedCategory: 0

sequence: HMFTDAEIKQFAAAAVEVTKIQQDSTISAADKQPKMLAVVQSSGLPPEKFNQIGQAAAADPALQQRIQA
assignedCategory: 1

sequence: HMSFGFFELKSSDTDKLFAYLNNNEHFGNIKEENGLVTAFLTSELDAQTLNKLLFDNGIIASHLVKRK
assignedCategory: 0

sequence: HMDEETVALQKAIHSLPPKQQAVFNMRYYDEMSFREIADANETTESSAKANYHFAKAKIIEQMKR
assignedCategory: 1

Does the reported soluble fraction (log2) for HMNVKVSVDDIARPGLMASGRVTFADGNRGMWYVDEMGRLGIDPEVEGYQPSEADIQAFQRELQSVMES fall at or above the -0.04 mark?
1

Could you tell me if the measured soluble fraction (log2) of HMAEDGNMTFEEYAKRWLARQVRYAPSTLESYRRMLGRVYPFIGAIPINRLRPIALENLLAELRKRT reaches -0.04 or more?
0

Please indicate if the recorded soluble fraction (log2) for HMEKINLLVENNDNYRLDKIIALNMEELSRTQIQEMIGQGLVLVNGKVEKASYKTKLNDQIEITIED meets or exceeds -0.04.
1

In plain terms: is recorded soluble fraction (log2) at least -0.04 for HMINLVPFELKFITAQVLDDIIKKIGINADTIILDINPKKIWVYAGEQELSDIQNIVKNVDVEDNI ?
0

Tell me whether soluble fraction (log2) is at least -0.04 here: HMSLQDYYQVLGVFYNAGDKEIKRRWKELINQYHPDLAQAKGASPEEIENYTLKMAEINNAYEQIMKSRKA
0

Evaluate HMINFLSKREIEVLRLVADGLSNRDVGQYLFISESTVKRHLSTIYEKLAVKSRTQAIDHARRADL : soluble fraction (log2) at minimum -0.04?
0

Determine whether measured soluble fraction (log2) meets or exceeds -0.04 for HMSRAARLALDALPDEWAQFAESRGLAGSAMAETWETFRDYWQAQPGQKGVKADWAATWRNWVRRETQNRG
0
